biological target: Tyrosinase (Agaricus bisporus, UniProt O42713)
Sequence (O42713 whole entry): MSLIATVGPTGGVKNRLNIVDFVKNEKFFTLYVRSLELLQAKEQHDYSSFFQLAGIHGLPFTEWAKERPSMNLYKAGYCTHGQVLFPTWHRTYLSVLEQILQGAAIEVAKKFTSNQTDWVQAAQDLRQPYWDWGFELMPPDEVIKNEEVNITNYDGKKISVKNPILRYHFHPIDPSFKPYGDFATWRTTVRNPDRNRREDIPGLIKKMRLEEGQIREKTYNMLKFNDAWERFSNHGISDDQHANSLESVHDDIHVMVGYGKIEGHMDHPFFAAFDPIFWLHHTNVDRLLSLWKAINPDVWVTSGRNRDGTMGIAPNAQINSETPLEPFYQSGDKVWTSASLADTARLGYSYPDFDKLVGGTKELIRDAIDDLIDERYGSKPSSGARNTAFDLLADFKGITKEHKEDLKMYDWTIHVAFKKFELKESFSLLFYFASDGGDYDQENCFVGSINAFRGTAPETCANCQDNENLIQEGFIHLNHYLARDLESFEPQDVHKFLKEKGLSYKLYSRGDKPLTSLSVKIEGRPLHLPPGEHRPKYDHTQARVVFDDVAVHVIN
pIC50: −log10 of the molar value.
experimental_endpoint: pIC50

Observed pIC50 on Tyrosinase (Agaricus bisporus, UniProt O42713) for CC(=O)OC[C@H]1O[C@@H](Oc2ccc(/C=N\NC(N)=S)cc2)[C@H](OC(C)=O)[C@@H](OC(C)=O)[C@@H]1OC(C)=O , please.
6.51

Proceed to CC(=O)OC[C@H]1O[C@@H](O[C@H]2[C@H](OC(C)=O)[C@@H](OC(C)=O)[C@H](Oc3ccc(/C=N\O)cc3)O[C@@H]2COC(C)=O)[C@H](OC(C)=O)[C@@H](OC(C)=O)[C@H]1OC(C)=O
< 3.70

Proceed to CO/N=C\c1ccc(O[C@@H]2O[C@H](COC(C)=O)[C@@H](OC(C)=O)[C@H](OC(C)=O)[C@H]2OC(C)=O)cc1
< 3.70
